B1: SOAT2 (parent)
chain: SLGKQKVFIIRKSLLDELMEVQHF

variants of: B1; assay: protein stability index of a GFP-peptide fusion (GPS, HEK-293T) (PSI 1-6); higher = more stable; conditions: c terminus: a fixed tail appended;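 note: lentivirally expressed fusions sorted by FACS into six bins by GFP to DsRed ratio, PSI derived from sequencing read proportions per bin multiplied by bin number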
Recorded protein stability index values for a group of variants are listed next.

Sample records with protein stability index:
>  <orderedResidues>
SLGKQKVFIIRKSMLDELMEVQHF [L14M]

>  <protein stability index>
2.25

$$$$
>  <orderedResidues>
CLGKQKVFIIRKSLLDELMEVQHF [S1C]

>  <protein stability index>
2.9

$$$$
>  <orderedResidues>
SLGKQKVFIIRKSPLDELMEVQHF [L14P]

>  <protein stability index>
2.43

$$$$

**Q:** Look at this variant and give its reported protein stability index. SLGKQKVFIIRKSLLDELMDVQHF [E20D]
**A:** 1.63
